Where these numbers come from: the nanobody polyreactivity screen of Harvey et al. (2022)

test.summary: yeast display, Sf9 membrane polyspecificity reagent, FACS + sequencing; frameworks hold sequencing errors
measured.attribute: polyreactivity (PSR sort gate)

1. QVQRVESGGGLVHAAGSRRLSCAASGSIFWPYAMGWYRLAPGKEREFVAPISSSGSRTHYADSVKGRFTISRDTAKNTVYLQMNSLKPEDTAVYYCATDSRVITWYGGVEFDYWGQGTQVTVSS
low polyreactivity
2. QVQLVESGGGLVQAGGSLRLSCAASGRIFLFYAMGWYRQAPGKERELVAGIRSGGSTNYADSVKGRFTISRDNAKNTVYLQMNSLKPEDTAVYYCAAASYFVYPRLEGYWGQGTQVTVSS
low polyreactivity
3. QVQLVESGGGLVQAGGSLRLSCAASGSIFPGNAMGWYRPAPGKERELVAVIDFSGASTYYADSVKGRYTISRDNAKNTVYLQMNCLKPEVTADFWGQGTQVTVSS
low polyreactivity
4. QVQLVESGGGLVQAGGSLRLSCAASGRIFYANAMGWYRQAPGKERELVAAISWSGGSTYYADSVKGRFTISRDNAKNTVYLQMNSLKPEDTAVYYCNALGRSYRSRRYDYWGQGTQVTVSS
high polyreactivity
5. QVQLQESGGGLVQAGGSLLSCAASGTISYYREMGWYRQAPGKERELVAGIGVGTITYYADSVKGRITISRDNAKNTVYLQMNSLKPEDTAVYYCEAHIDGNDSHAYWGQGTQVTVSS
low polyreactivity
6. QVQLVESGGGLVQAGGSLRLSCAASGSTCSVNAMGWYRQAPGKERELVAAITYSGGSTYYADSVKGRFTISRDNAKNTVYLQMNSLKPEDTAVYYCNRDTRYYWKRYGYWGQGTQVTVSS
high polyreactivity
7. QVQLVESGGGLVQAGGSLRLSCAASGLTFWLNAMGWYRQAPGKERELVAAIRYSGVGTYADSVKGRFTISRDNAKNTVYLQMNSLKPEDTAVYYCAALYNLGYPQFDYWGQGTQVTVSS
low polyreactivity
8. QVQLVESGGGLVQAGGSLRLSCAASGIIFRLYAMGWYRQAPGKERELVAAITSRGGSTYYADSVKGRFTISRDNAKNTVYLQKNSLKPEDTAVYYCAARPVYSGYDYWGQGPQVTVSS
high polyreactivity
9. QVQLVESGGGLVQAGGSLRLSCAPSGSTFGFYAMGWYIQAPGKERELVAAISRGGSTNYADSVKGRFTISRDNAKNTVYLQMNSLKPEDTAVYYCAKAYHATSDYWGQGTQVTVSS
low polyreactivity
10. QVQLVESGGGLVQAGGSLRLSCAASGSIFLHNAMGWYRQAPGTERELVAGITSSGTSTYYADSVKGRFTISRDIAKNTVYLQMNSLKPEDTAVYYCAAYRYGSRGGYWGQGTHVTVSS
high polyreactivity
11. HDQLVESGGGLVQAGGSLRLSCAASGNTFIYYAMGWYRQAPGKEREMVAAISRSGGSTYYADSVKGRFTISRDNAKNTVYLQMNSLKPEDTAVYYCAAEATKWIGVVTMDYWGQGTQVTVSS
high polyreactivity
12. QVQLVESGGGLVQAGGSLRLSCAASGFTFTYNTMGWYRQAPGKEREMVAAISSTGGSTYYADSVKGRFTISRDNAKNTVYLQMNSLKPEDTAVYYCNACLPFSGRKRYGYWGQGTQVTVSS
high polyreactivity
13. QVQHVESGGGLVQAGGSLRLSCAASGLIFTTYAMGWYRQAPGKERELVADINSDGSTYYADSVKGRFTISRDNAKNTVYLQMNSLKPEDTAVYYCAASSYYTITYKLIYWRNYDYWGHGTQVTVSS
low polyreactivity
14. QVQLVESGGGLVQAGGSLRLSCAASGSIYYNAMGWYRQAPGKERELVAGITWSGGSTYYADSVKGRFTISRDNAKNTVYLQMNSLKPEDTAVYYCAADFVYLGTHYGAYDYWGQGTQVTVSS
low polyreactivity
15. QVQLVESGGGLVQAGGSGRLSCAASGITCAYYAMGWYRQAAGKERELVAVITSGGRPNYADSVKGRVTISRDNAKNTVYLQMNSLKPEDTAVYYCAAYRSSKTLRRGYYYWGQGTQVTGSS
high polyreactivity
16. QVHLVESVGGLVQAGGSLRLSCAGSGRIFYLNSMGWYRQATGKDRELVAGITNSTTGTYYADSVKGRFKISRDNAKNTVYLQMNSLKAEETAVYYCNTDVAYEEPVETYDYWGQGTQVTVSS
low polyreactivity
17. QVQLVESGGGLVQAGGSLRLSCAASGLIFAFYAMGWYRQAPVKERELVASIDKSGGSTYADSVKGRFTISRDNAKNTVYLQMNSLKQEDTAVYYCAADYSLIDLFYWGQGTQVTVSS
low polyreactivity
18. QVQLVESGGGLVQAGGSLRVSCAASGFTFYQYGMGWYRQAPGKERELVATSTSGGRTNYADSVKGRFTISRDNAKNTVYLQMNSLKPEDTAVYYCNKLPYYPRVGRIGRYYYWGQGTQVTVSS
high polyreactivity
19. QVQLVESGGGLLQAGGSLRLSCAASGSIFRYYAKGWYRQAPGKERELVAAISYSGGRTYYADSVKGRFTISRDNAKNTVYLQMNSLKPEDTAVYYCNAGAGKRGYDYWGQGTQVTVSS
low polyreactivity
20. QVQLVESGGGLVQAGGSLRLSCAASGSTFRRYAMGWNRKAPGKERELVAAISGRGGSTSYADSVTGRFTISRDNAKNTVFLQMNSLKPEETAVYYCAADDKYFYPGNGYWGQGTQVTVSS
high polyreactivity
21. QVQHVESVGGLVQAGGSLRLSCAASGSTFARYVMGWYRQAPGKEWELVAVISRSGGSTYYADSVKGRFTISRDNAKNTVYLQMNSLKPEDTAVYYCNARSSNYWWYYYWGQGTQVTVSS
high polyreactivity
